Tested on: SW480
run_description: cell viability (CellTiter-Glo) relative to plate median (fraction of plate median); higher = more viable cells
stated_conditions: 5 µM; treatment time 24 h; reporter: 7TFP
Rule: measured cell viability below 1 gets true; anything equal to or greater than 1 gets false.

q: A record lists NC[C@@H]1O[C@H](O[C@H]2[C@@H](O)[C@H](O[C@@H]3[C@@H](O)[C@H](N)C[C@H](N)[C@H]3O[C@H]3O[C@H](CO)[C@@H](O)[C@H](O)[C@H]3N)O[C@@H]2CO)[C@H](N)[C@@H](O)[C@@H]1O . Is its cell viability below 1?
a: false

q: A record lists C=C1CC[C@H](O)C/C1=C/C=C1\CCC[C@]2(C)[C@@H]([C@H](C)CCCC(C)C)CC[C@@H]12 . Is its cell viability below 1?
a: true

q: A record lists CC(C)[C@H](N)C(=O)OCCOCn1cnc2c(=O)nc(N)[nH]c21 . Is its cell viability below 1?
a: true

q: A record lists O=C(O)CCC(=O)c1ccc(-c2ccccc2)cc1 . Is its cell viability below 1?
a: true

q: A record lists Cc1cc(O)cc(O)c1C(=O)O . Is its cell viability below 1?
a: false

q: A record lists CC1=C(/C=C/C(C)=C/C=C/C(C)=C/CO)C(C)(C)CCC1 . Is its cell viability below 1?
a: false

---

Tested on: SW480
run_description: cell viability (CellTiter-Glo) relative to plate median (fraction of plate median); higher = more viable cells
stated_conditions: 5 µM; treatment time 24 h; reporter: 7TFP
assay_readout: cell viability
Answers are plain numbers.

In [3]: df
Out[3]:
                               smiles_input  experimental_result
0  COC(=O)c1c(OC)cc2c(c1C)Oc1c(Cl)c(OC(C)=O)c(Cl)c(C)c1C(=O)O2                0.988
1  O=C1[C@H](CC[C@H](O)c2ccc(F)cc2)[C@@H](c2ccc(O)cc2)N1c1ccc(F)cc1                0.961
2  NC[C@H]1O[C@H](O[C@H]2[C@H](O)[C@@H](O[C@H]3O[C@H](CO)[C@@H](O)[C@H](N)[C@H]3O)[C@H](N)C[C@@H]2N)[C@H](N)C[C@@H]1O                0.998

Now look at this entry.
q: Any idea what its cell viability is? The compound is CN(C)[C@@H]1C(O)=C(C(N)=O)C(=O)[C@@]2(O)C(O)=C3C(=O)c4c(O)cccc4[C@@](C)(O)[C@H]3C[C@@H]12
a: 1

---

System: HCT116
run_description: cell viability (CellTiter-Glo) relative to plate median (fraction of plate median); higher = more viable cells
stated_conditions: 5 µM; treatment time 24 h; reporter: TCF4/Wnt
assay_readout: cell viability

As a guide, the following entries are already answered.
compound	cell viability
COc1cc(C)c(C(=O)Oc2cc(C)c(C(=O)O)c(O)c2C)c(OC)c1C	1.02
C/C=C/CCC(=O)c1c(C)c(O)c(O)c(C)c1O [Sohirnone C]	0.995
CC1(C)NC(=O)N(c2ccc([N+](=O)[O-])c(C(F)(F)F)c2)C1=O	0.983
CC(=O)c1cc2c(cc1O)OC(C)(C)C=C2	1
C=C(C)[C@@H]1CC[C@]2(C(=O)O)CC[C@]3(C)[C@H](C[C@H]4OC(=O)C[C@@H](O)[C@]5(C)[C@@H]4[C@@]3(C)CC[C@H]5C(=C)C)[C@@H]12 [Chiisanogenin (12)]	1.02
N=C(N)NC(=O)c1nc(Cl)c(N)nc1N	0.988

For each of the compounds below, note its cell viability.
1. CC(=O)N[C@@H](CS)C(=O)O
2. CC(=O)OCC[N+](C)(C)C
3. OCCOCCN1CCN(C2=Nc3ccccc3Sc3ccccc32)CC1
4. CC(=O)NO
5. COc1ccc(-c2cc(=O)c3c(O)cc(OC)c(OC)c3o2)c(OC)c1

a:
[0.988, 0.998, 1, 0.999, 0.988]
